# Assay System: AKT1 (Homo sapiens, UniProt P31749)
# Construct: purchased DiscoveRx KINOMEscan
# Sequence (P31749 whole entry): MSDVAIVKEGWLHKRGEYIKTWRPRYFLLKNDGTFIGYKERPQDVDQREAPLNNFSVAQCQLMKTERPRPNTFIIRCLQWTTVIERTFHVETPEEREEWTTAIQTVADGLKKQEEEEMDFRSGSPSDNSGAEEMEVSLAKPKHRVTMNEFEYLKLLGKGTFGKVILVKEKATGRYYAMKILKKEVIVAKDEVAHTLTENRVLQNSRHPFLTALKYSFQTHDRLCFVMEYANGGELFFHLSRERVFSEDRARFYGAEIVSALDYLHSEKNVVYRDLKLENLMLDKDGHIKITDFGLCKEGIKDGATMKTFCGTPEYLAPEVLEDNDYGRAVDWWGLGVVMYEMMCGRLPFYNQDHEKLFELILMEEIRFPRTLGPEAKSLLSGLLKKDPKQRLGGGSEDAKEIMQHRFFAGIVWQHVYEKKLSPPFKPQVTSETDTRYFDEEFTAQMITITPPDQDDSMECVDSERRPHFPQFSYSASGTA
# Test Details: biochemical binding or enzymatic assay
# Condition Context: Novartis
Endpoint: IC50

In: Given the entry N[C@H]1CC[C@H](Nc2cc(-c3cccc(NCc4cccc(F)c4)n3)c(Cl)cn2)CC1 , report its measured IC50.
Out: > 10 µM

---

# Assay System: FGFR2 (Homo sapiens)
# Sequence (P21802 22-821): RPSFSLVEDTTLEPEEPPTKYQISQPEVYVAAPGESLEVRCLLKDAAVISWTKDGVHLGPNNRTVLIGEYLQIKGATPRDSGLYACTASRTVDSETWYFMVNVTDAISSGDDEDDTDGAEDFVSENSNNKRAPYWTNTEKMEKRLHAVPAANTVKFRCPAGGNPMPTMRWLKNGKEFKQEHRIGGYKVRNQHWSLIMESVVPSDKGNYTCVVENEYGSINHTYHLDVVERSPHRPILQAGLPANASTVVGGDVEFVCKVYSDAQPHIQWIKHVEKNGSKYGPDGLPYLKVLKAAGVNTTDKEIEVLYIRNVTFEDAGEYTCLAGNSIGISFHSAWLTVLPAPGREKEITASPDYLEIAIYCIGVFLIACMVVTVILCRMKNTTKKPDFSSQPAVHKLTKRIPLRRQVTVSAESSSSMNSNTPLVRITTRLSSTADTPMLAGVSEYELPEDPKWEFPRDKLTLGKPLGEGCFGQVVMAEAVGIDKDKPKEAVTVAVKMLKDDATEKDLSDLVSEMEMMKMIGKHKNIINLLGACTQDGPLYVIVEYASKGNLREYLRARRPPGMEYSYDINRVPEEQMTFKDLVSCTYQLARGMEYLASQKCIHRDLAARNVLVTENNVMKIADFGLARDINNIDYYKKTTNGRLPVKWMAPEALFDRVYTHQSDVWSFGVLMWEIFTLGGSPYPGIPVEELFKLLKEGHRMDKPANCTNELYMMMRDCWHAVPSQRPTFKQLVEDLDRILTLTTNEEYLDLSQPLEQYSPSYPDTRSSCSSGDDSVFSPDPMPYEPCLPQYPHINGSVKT
Endpoint: IC50

In: API: value(readout=IC50, system=FGFR2 (Homo sapiens)) for record N[C@H]1CC[C@H](Nc2cc(-c3cccc(NCc4cccc(F)c4)n3)c(Cl)cn2)CC1 [i-CDK9]
Out: > 10 µM
